GFP response vs DMSO reference
experiment: TOR pathway LAP4-GFP level changes – S. cerevisiae, multiplex flow cytometry, MLPCN library, primary screen (AID 2023); conditions: 3 h, at 10 µM, hits give high values, median GFP as percent of DMSO wells
Out of some 320,000 compounds screened, about 1,100 (0.34%) were called active. Only a selection was taken, and actives are over-represented in it overall.
API: value field is a number in %; no unit string.

> print(dat)
                                   compound  readout.number
1  COC(=O)c1ccc(N2CCOCC2)c(NC(=O)c2ccc(Br)o2)c1            84.3
2  Cc1cccc(N)c1SC1CCCCC1O (stereo unspecified)            92.2
3  Cc1ccc(CS(=O)Cc2ccc(C(=O)N3CCOCC3)o2)cc1 (stereo unspecified)             103
4  Cc1cccc(NS(=O)(=O)c2ccc(C(=O)NCC(C)(C)N3CCOCC3)cc2)c1C             103
5   Cc1cccc(C)c1N1CCN(S(=O)(=O)N2CCOCC2)CC1             110

Now take the following compound into account.
Supply reported GFP response vs DMSO belonging to this compound: FC(F)(F)c1cnc(Oc2ccccc2-c2nnc(-c3ccc(Cl)cc3)o2)c(Cl)c1
96.3

* * *

test: TOR pathway LAP4-GFP level changes – S. cerevisiae, multiplex flow cytometry, MLPCN library, primary screen (AID 2023); settings: 3 h, at 10 µM, median GFP as percent of DMSO wells
Out of some 320,000 compounds screened, about 1,100 (0.34%) were called active.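 The calls were made as follows: active = GFP response vs DMSO above a set limit, about the screen mean plus 3 SD (cut at about 150% in these data); inconclusive = under 70 cell events counted for the yeast strain; inactive = the rest.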 For the sample, actives were picked, then their nearest neighbours and some compounds at random.
Pick one and only one: y for active, n for inactive

Recorded results for 6 compounds are shown here.
compound	discrete_label
CC1C=CCC2C(=O)N(c3cccc(C(=O)N4CCCCCC4)c3)C(=O)C12 (configuration not stated)	n
COc1ccc(-n2nc(C(=O)NCC(=O)N3CCCCCC3)c3ccccc3c2=O)cc1Cl	n
COc1ccc(O[C@H]2C=C[C@@H](c3ccccc3)O[C@@H]2CO/N=C/C[C@@H]2C=C[C@H](OC(C)=O)[C@@H](COC(C)=O)O2)cc1	n
O=C(Nc1ccc(Br)cn1)c1ccc([N+](=O)[O-])o1	n
CCOc1ccc(NC(=S)NC(=O)/C=C/c2ccc(OC)cc2)c([N+](=O)[O-])c1	n
O=C(c1cccc(Cl)c1)N1CCN(Cc2ccccc2)CC1	n

Assay outcome for CC(NC(=O)C1CCCN(S(=O)(=O)c2ccc(-n3cnnn3)cc2)C1)c1ccc(F)cc1 (configuration not stated) : what was it?
n

Assay outcome for C#CCOCCOCCOCCNc1nc(N2CCN(C(=O)CCCCCCCCCCNC(=O)Cn3cc(CCCCCN)nn3)CC2)nc(N2CCN(C(=O)CCCCCCCCCCNC(=O)[C@H](CO)n3cc(CCCSC)nn3)CC2)n1 : what was it?
n

Assay outcome for CC(=O)Nc1ccc(Nc2nc3c(S(=O)(=O)c4ccc(C)c(C)c4)nnn3c3ccccc23)cc1 : what was it?
n

Assay outcome for COc1ccccc1CNC(=O)CN1CCC(n2cnc3cc(F)ccc32)CC1 : what was it?
n

Assay outcome for C#CCOCCOCCOCCNc1nc(N2CCN(C(=O)CCCCCCCCCCNC(=O)[C@H]([C@@H](C)CC)n3cc(CCCCN=C(N)N)nn3)CC2)nc(N2CCN(C(=O)CCCCCCCCCCNC(=O)[C@H](CO)n3cc(CCCSC)nn3)CC2)n1 : what was it?
n

Assay outcome for COc1ccc(Cl)cc1NC(=O)CN(C)C(=O)CCCc1c[nH]c2ccccc12 : what was it?
n

Assay outcome for CCc1noc(C)c1C(=O)Nc1nc2ccc(OC)cc2s1 : what was it?
y

Assay outcome for C#CCOCCOCCOCCNc1nc(N2CCN(C(=O)CCCCCCCCCCNC(=O)[C@H](CCCCN)n3cc(C)nn3)CC2)nc(N2CCN(C(=O)CCCCCCCCCCNC(=O)[C@H](CO)n3cc(CCCSC)nn3)CC2)n1 : what was it?
y

Assay outcome for CCc1noc(C)c1C(=O)Nc1nc(-c2ccccc2)cs1 : what was it?
n

Assay outcome for COc1cccc(C(=O)Nc2nc3ccc(S(C)(=O)=O)cc3s2)c1 : what was it?
n

Assay outcome for Nc1ccccc1SC(C[N+](=O)[O-])c1ccccc1 (configuration not stated) : what was it?
y

* * *

GFP response vs DMSO reference
test: TOR pathway LAP4-GFP level changes – S. cerevisiae, multiplex flow cytometry, MLPCN library, primary screen (AID 2023); settings: 3 h, at 10 µM, hits give high values, median GFP as percent of DMSO wells
About 1,100 (0.34%) of roughly 320,000 compounds were called active. Only a selection was taken, and actives are over-represented in it overall.
API: value field is a number in %; no unit string.

Consider the following illustrative entries.
> print(dat)
                                   molecule  readout.number
1  Cc1cc(=O)n2nc(N3CCCC(C(=O)NCCC4=CCCCC4)C3)sc2n1 (stereo unspecified)             196
2  Cc1cc(=O)n2nc(N3CCCC(C(=O)NCc4ccc(Cl)cc4)C3)sc2n1 (stereo unspecified)            92.3
3        O=C(NC1CCCC1)C(=O)c1c[nH]c2ccccc12             100

Supply reported GFP response vs DMSO belonging to this molecule: COc1cc(/C=C/C(=O)O)cc(S(=O)(=O)Nc2ccccc2C(=O)NCCc2ccccc2)c1OC
96

Supply reported GFP response vs DMSO belonging to this molecule: NS(=O)(=O)c1ccc(CCNC(=O)CCCn2c(SCC(=O)N3CCCC3)nc3ccsc3c2=O)cc1
101

Supply reported GFP response vs DMSO belonging to this molecule: CC(C)c1nc(SCC(=O)Nc2cccc(C(=O)O)c2)c2c3c(sc2n1)CCCC3
99.7

Supply reported GFP response vs DMSO belonging to this molecule: CC1=NNC(=O)C1Cc1c(Cl)cccc1Cl (stereo unspecified)
98.6

Supply reported GFP response vs DMSO belonging to this molecule: CC1(C)CC(=O)CC2(C1)NCC(c1ccccc1Cl)c1c2[nH]c2ccccc12 (stereo unspecified)
107

Supply reported GFP response vs DMSO belonging to this molecule: Cc1ccc(S(=O)(=O)N2CCC(C)CC2)cc1C(=O)NCc1ccccn1
99.2

Supply reported GFP response vs DMSO belonging to this molecule: COc1cccc(NC(=O)C2CCCN(c3ncnc4c3nc3n4CCCCC3)C2)c1 (stereo unspecified)
94.5

Supply reported GFP response vs DMSO belonging to this molecule: COc1ccc(N(CC(=O)NCC2CCCO2)C(=O)CCC(=O)Nc2nccs2)c(OC)c1 (stereo unspecified)
91.8

Supply reported GFP response vs DMSO belonging to this molecule: O=C(COC(=O)c1ccccc1Br)Nc1nnc(-c2ccccc2)o1
115

* * *

experiment: TOR pathway LAP4-GFP level changes – S. cerevisiae, multiplex flow cytometry, MLPCN library, primary screen (AID 2023); details: 3 h, at 10 µM, hits give high values, median GFP as percent of DMSO wells
Out of some 320,000 compounds screened, about 1,100 (0.34%) were called active. This is one part of a sample in which actives are shown more often than they occur.
measure_name: GFP response vs DMSO (%)
API: value field is a number in %; no unit string.

> print(dat)
                           molecule          measure.name  unit.string  readout.number
1       Oc1ccc(Br)cc1/C=N/Nc1ccccn1  GFP response vs DMSO            %             287
2  Oc1ccc(Br)cc1C=Nc1ccc2[nH]ncc2c1  GFP response vs DMSO            %            93.5

Supply reported GFP response vs DMSO belonging to this molecule: CC(C)c1ccc(NC(=O)C2CCCN(S(=O)(=O)c3cccnc3)C2)cc1 (stereo unspecified)
94.4

Supply reported GFP response vs DMSO belonging to this molecule: COc1ccc(-c2nn(-c3ccccc3)cc2/C=N/Nc2ccccn2)cc1OC
96.4

Supply reported GFP response vs DMSO belonging to this molecule: Cc1ccc2nsnc2c1NC(=O)c1ccccc1[N+](=O)[O-]
93.2

Supply reported GFP response vs DMSO belonging to this molecule: Clc1ccccc1CSc1nnc(-c2ccco2)c(-c2ccco2)n1
186

* * *

GFP response vs DMSO reference
assay: TOR pathway LAP4-GFP level changes – S. cerevisiae, multiplex flow cytometry, MLPCN library, primary screen (AID 2023); conditions: 3 h, at 10 µM, hits give high values, median GFP as percent of DMSO wells
About 1,100 (0.34%) of roughly 320,000 compounds were called active. The sample as a whole holds a higher share of actives than the screen did.
API: value field is a number in %; no unit string.

Consider the following illustrative entries.
> print(dat)
                                   compound  readout.number
1  Oc1c(Cl)cc(Cl)c(Cl)c1Cc1c(O)c(Cl)cc(Cl)c1Cl             174
2         O=C(O)CN1c2cccc3cccc(c23)S1(=O)=O            92.9
3       COc1ccc(Nc2ccc([N+](=O)[O-])cn2)cn1            89.6
4  O=C(Nc1cccc(Cl)c1Cl)c1ccccc1NC(=O)C1CC=CCC1C(=O)O (stereo unspecified)            67.7
5  Cc1cccc(C)c1NC(=O)C(Cl)C(=O)c1ccccc1 (stereo unspecified)             269

Supply reported GFP response vs DMSO belonging to this compound: CCN(c1ccccc1)S(=O)(=O)c1cc2c(cc1C)n(C)c(=O)c(=O)n2C
99.4

Supply reported GFP response vs DMSO belonging to this compound: Cc1ccn(-c2cccc(-n3ccc(C)n3)n2)n1
100

Supply reported GFP response vs DMSO belonging to this compound: Cc1cccc(C)c1NC(=O)C(c1ccccc1)N1CC(=O)Nc2ccccc21 (stereo unspecified)
90.5

Supply reported GFP response vs DMSO belonging to this compound: COc1ccc(NC(=O)/C(Cl)=C(/Cl)S(=O)Cc2ccc(C)cc2)cn1 (stereo unspecified)
201

Supply reported GFP response vs DMSO belonging to this compound: COc1ccc(S(=O)(=O)N2CCN(CC(=O)N3CCOCC3)CC2)cc1OC
95

Supply reported GFP response vs DMSO belonging to this compound: COc1ccc(-n2c(C)cc(C(=O)CN3C(=O)NC4(CCc5ccccc54)C3=O)c2C)cc1 (stereo unspecified)
96.4
